Compiled record: pIC50 values for Platelet-activating factor receptor (Homo sapiens) across several sources.
pIC50: −log10 of the molar value.
ENDPOINT: pIC50

Sample records with pIC50:
TEST_SMILES: COc1cc(Cn2ccc3ncccc32)ccc1C(=O)N(C1CCCCC1)C1CCC1
OBSERVED_VALUE: 8.15
//
TEST_SMILES: COc1ccc(S(=O)(=O)N[C@H]2CCC[C@@H](n3cnnc3)C2)c(OC)c1
OBSERVED_VALUE: 6.68
//
TEST_SMILES: CCc1cc(-c2nccs2)ccc1S(=O)(=O)N[C@H]1CCC[C@@H](n2cnnc2)C1
OBSERVED_VALUE: 7.35

P. COc1cc(C(=O)N(C(C)C)C2CCCCC2)ccc1Cn1ccc2ncnc-2c1
Q. COc1cc(C(=O)N(C(C)C)C2CCCCC2)ccc1Cn1ccc2ncnc-2c1-c1ccccc1
query: Quick check, higher pIC50 between P and Q ? Answer format: the label of the selected item.
result: P

1. O=S(=O)(N[C@H]1CCC[C@@H](n2cnnc2)C1)c1ccc(Oc2ncc(C(F)(F)F)cc2Cl)cc1
2. CCc1cc(-c2cc(Cl)cn3ccnc23)ccc1S(=O)(=O)N[C@H]1CCC[C@@H](n2cnnc2)C1
3. O=S(=O)(N[C@H]1CCC[C@@H](n2cnnc2)C1)c1cccc(OC(F)(F)F)c1
query: Rank by pIC50 (largest to smallest). Order the labels as requested and give them as your answer.
result: 2, 1, 3

---

pIC50: −log10 of the molar value.
Compiled record: pIC50 values for Platelet-activating factor receptor (Homo sapiens) across several sources.
ENDPOINT: pIC50

Sample records with pIC50:
COMPOUND: COc1cc(Cn2cnc3ncccc32)ccc1C(=O)N(C1CCCCC1)C1CCCC1
pIC50: 6.69
//
COMPOUND: O=S(=O)(N[C@H]1CCC[C@@H](n2cnnc2)C1)c1cc(-c2ccc3nc(C(F)(F)F)cn3n2)cc(C(F)(F)F)c1
pIC50: 7.57
//
COMPOUND: CCc1cc(-c2cccnc2)ccc1S(=O)(=O)N[C@H]1CCC[C@@H](n2cnnc2)C1
pIC50: 6.80
//
COMPOUND: O=S(=O)(N[C@H]1CCC[C@@H](n2cnnc2)C1)c1ccc(-c2ccc(OC(F)(F)F)cc2)c(F)c1
pIC50: 8.24
//
COMPOUND: COc1cc(Cn2cnc3cccnc32)ccc1C(=O)N(C1CCCC1)C1CC(C)CC(C)C1 (stereo not shown)
pIC50: 7.14

a. Cc1nncn1[C@@H]1CCC[C@H](NS(=O)(=O)c2ccc(-c3cnc(Cl)c(F)c3)c(F)c2)C1
b. CC(C)N(C(=O)c1ccc(CN2CCOc3cnccc32)c(Br)c1)C1CCCCC1
query: Quick check, higher pIC50 between a and b ? Answer format: the label of the selected item.
result: b
(b: 8.70, a: 7.44)

---

pIC50: −log10 of the molar value.
Compiled record: pIC50 values for Platelet-activating factor receptor (Homo sapiens) across several sources.
ENDPOINT: pIC50

A. CC(C)N(C(=O)c1ccc(Cn2ccc3ncnc-3c2)cc1)C1CCCCC1
B. Cc1nncn1[C@@H]1CCC[C@H](NS(=O)(=O)c2ccc(-c3ccc(OC(F)(F)F)cc3)c(F)c2)C1
query: Quick check, higher pIC50 between A and B ? Answer format: the label of the selected item.
result: B

P. CCc1cc(-c2ccn3nccc3n2)ccc1S(=O)(=O)N[C@H]1CCC[C@@H](n2cnnc2)C1
Q. O=S(=O)(N[C@H]1CCC[C@@H](n2cnnc2)C1)c1cc(-c2cccn3cnnc23)cc(C(F)(F)F)c1
R. COc1cc(C(=O)N(C(C)C)C2CCCCC2)ccc1Cn1cccc2nc(C)nc1-2
S. Cc1cc(C(=O)N(C2CCCCC2)C2CCCC2)ccc1Cn1ccc2ncccc21
T. CCc1cc(-c2ccc(OC(C)C)nc2)ccc1S(=O)(=O)N[C@H]1CCC[C@@H](n2cnnc2)C1
query: // ascending sort on recorded pIC50 Order the labels as requested and give them as your answer.
result: R, S, P, Q, T
